meta.source: paper PMC9202104

Reported SI (CC50/IC50) is given for each of the following molecules.
Test system: ZIKV human strain PAN2016 (2016/Panama)
Test: Plaque assay, inhibition of ZIKV infection (strain PAN2016)
Settings: CC50 Vero E6 / IC50 ZIKV PAN2016
Method: After removal of the unbound compounds by centrifugation (after addition of 3% PEG-6000), ZIKV was incubated with Vero E6 cells in 24-well plates at 37°C for 1 h. The cells were then washed with PBS, overlaid with DMEM containing 1% carboxymethyl cellulose and 2% FBS, and cultured at 37°C for 4–5 days, followed by being stained with 0.5% crystal violet. […] Plaques in each well were calculated, and IC50 of compounds for each compound was calculated using the CalcuSyn computer program.
Reply with the value as a number alone.

Worked set:
Cc1cc2c(c(O)c1-c1c(C)cc3c(c1O)/C(=C/NCc1cccnc1)C(=O)C(O)=C3C(C)C)/C(=C/NCc1cccnc1)C(=O)C(O)=C2C(C)C; 2.97
Cc1cc2c(c(O)c1-c1c(C)cc3c(c1O)/C(=C/NCCO)C(=O)C(O)=C3C(C)C)/C(=C/NCCO)C(=O)C(O)=C2C(C)C; 1.20
Cc1cc2c(C(C)C)c(O)c(O)c(/C=N/NC(=O)C(C)C)c2c(O)c1-c1c(C)cc2c(C(C)C)c(O)c(O)c(/C=N/NC(=O)C(C)C)c2c1O; 10.23
Cc1cc2nc[nH]c2c(/N=C/c2c(O)c(O)c(C(C)C)c3cc(C)c(-c4c(C)cc5c(C(C)C)c(O)c(O)c(/C=N/c6c(C)c(C)cc7nc[nH]c67)c5c4O)c(O)c23)c1C; 14.48
Cc1cc2c(c(O)c1-c1c(C)cc3c(c1O)C(C=C1C(=O)NC(=O)NC1=O)C(=O)C(O)=C3C(C)C)C(C=C1C(=O)NC(=O)NC1=O)C(=O)C(O)=C2C(C)C (stereo not drawn); 2.7

Note: attention shifts to another entry.
Input line: Lab note: ZIKV human strain PAN2016 (2016/Panama) assay, enter SI (CC50/IC50) for Cc1cc2c(C(C)C)c(O)c(O)c(/C=N/n3c(=O)[nH][nH]c3=O)c2c(O)c1-c1c(C)cc2c(C(C)C)c(O)c(O)c(/C=N/n3c(=O)[nH][nH]c3=O)c2c1O here
Output line: 15.63

* * *

target: ZIKV full-length envelope (E) protein (Zika virus); construct: ZIKV full-length E (Aviva Systems Biology, San Diego, CA, USA); assay: ELISA binding to ZIKV full-length E protein
Sequence (Q32ZE1 291-790): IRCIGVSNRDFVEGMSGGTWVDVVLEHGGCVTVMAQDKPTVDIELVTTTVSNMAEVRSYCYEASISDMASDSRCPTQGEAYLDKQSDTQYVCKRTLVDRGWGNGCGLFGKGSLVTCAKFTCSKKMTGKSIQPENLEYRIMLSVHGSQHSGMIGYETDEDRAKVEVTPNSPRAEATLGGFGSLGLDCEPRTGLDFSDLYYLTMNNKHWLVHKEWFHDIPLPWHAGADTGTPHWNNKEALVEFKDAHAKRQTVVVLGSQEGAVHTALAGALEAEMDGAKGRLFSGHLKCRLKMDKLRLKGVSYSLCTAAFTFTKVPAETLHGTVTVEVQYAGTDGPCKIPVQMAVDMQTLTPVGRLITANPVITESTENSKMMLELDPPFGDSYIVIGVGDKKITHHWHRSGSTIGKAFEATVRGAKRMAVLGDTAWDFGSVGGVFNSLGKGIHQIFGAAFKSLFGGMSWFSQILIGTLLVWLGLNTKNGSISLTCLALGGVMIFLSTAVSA
MEASUREMENT KIND: pEC50
API: returns pEC50 as number; meaning -log10 of concentration in mol/L.

Input line: # return recorded pEC50 for entry Cc1cc2c(C(C)C)c(O)c(O)c(/C=N/n3c(=O)[nH][nH]c3=O)c2c(O)c1-c1c(C)cc2c(C(C)C)c(O)c(O)c(/C=N/n3c(=O)[nH][nH]c3=O)c2c1O
Output line: 5.19

* * *

assay: Cytotoxicity, Cell Counting Kit-8, Vero E6 cells; assay type: cell-based; conditions: African green monkey, CC50 Vero E6
MEASUREMENT KIND: CC50 at 3 days (µM)
Lab book: enter the figure in µM, no units written.

Worked set:
Cc1cc2c(C(C)C)c(O)c(O)c(/C=N/NC(=O)C(C)C)c2c(O)c1-c1c(C)cc2c(C(C)C)c(O)c(O)c(/C=N/NC(=O)C(C)C)c2c1O; 50.5
Cc1cc2c(c(O)c1-c1c(C)cc3c(c1O)/C(=C/NCc1cccnc1)C(=O)C(O)=C3C(C)C)/C(=C/NCc1cccnc1)C(=O)C(O)=C2C(C)C; 104

Input line: # return recorded CC50 at 3 days for entry Cc1cc2c(C(C)C)c(O)c(O)c(C=O)c2c(O)c1-c1c(C)cc2c(C(C)C)c(O)c(O)c(C=O)c2c1O [Gossypol, reference compound]
Output line: 14.5

Input line: # return recorded CC50 at 3 days for entry Cc1cc2nc[nH]c2c(/N=C/c2c(O)c(O)c(C(C)C)c3cc(C)c(-c4c(C)cc5c(C(C)C)c(O)c(O)c(/C=N/c6c(C)c(C)cc7nc[nH]c67)c5c4O)c(O)c23)c1C
Output line: 72.1

Input line: # return recorded CC50 at 3 days for entry Cc1cc2c(c(O)c1-c1c(C)cc3c(c1O)/C(=C/NCCO)C(=O)C(O)=C3C(C)C)/C(=C/NCCO)C(=O)C(O)=C2C(C)C
Output line: 42.3

Input line: # return recorded CC50 at 3 days for entry Cc1cc2c(C(C)C)c(O)c(O)c3c2c(c1-c1c(C)cc2c(C(C)C)c(O)c(O)c4c2c1OC4N)OC3N (stereo not shown)
Output line: 25.9

Input line: # return recorded CC50 at 3 days for entry Cc1cc2c(C(C)C)c(O)c(O)c(/C=N/n3c(=O)[nH][nH]c3=O)c2c(O)c1-c1c(C)cc2c(C(C)C)c(O)c(O)c(/C=N/n3c(=O)[nH][nH]c3=O)c2c1O
Output line: 49.6

* * *

molecular target: ZIKV NS2B-NS3 protein (Zika virus, UniProt Q32ZE1)
Sequence (Q32ZE1 1499-1683, added parts left off, change not shown): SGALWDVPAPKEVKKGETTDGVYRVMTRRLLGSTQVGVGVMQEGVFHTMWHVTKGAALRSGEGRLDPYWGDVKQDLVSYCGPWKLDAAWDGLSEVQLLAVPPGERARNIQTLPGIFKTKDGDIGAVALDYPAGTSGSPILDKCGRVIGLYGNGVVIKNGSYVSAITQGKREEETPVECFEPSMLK
MEASUREMENT KIND: pKd
API: returns pKd as number; meaning -log10 of concentration in mol/L.

Input line: # return recorded pKd for entry Cc1cc2c(C(C)C)c(O)c(O)c(/C=N/n3c(=O)[nH][nH]c3=O)c2c(O)c1-c1c(C)cc2c(C(C)C)c(O)c(O)c(/C=N/n3c(=O)[nH][nH]c3=O)c2c1O
Output line: 4.70

* * *

system: 8 human ZIKV strains (PAN2016, R116265, PAN2015, FLR, R103451, PRVABC59, PLCal_ZV, IbH 30656); assay: microbe, parasite or virus in culture; type: cell-based; conditions: Zika virus, read-out: Average IC50 (human strains)
Reported pIC50 is given for each of the following compounds.
API: returns pIC50 as number; meaning -log10 of concentration in mol/L.

Cc1cc2c(C(C)C)c(O)c(O)c(/C=N/NC(=O)C(C)C)c2c(O)c1-c1c(C)cc2c(C(C)C)c(O)c(O)c(/C=N/NC(=O)C(C)C)c2c1O [ST086273]; 5.26
Cc1cc2c(C(C)C)c(O)c(O)c(/C=N/n3c(=O)[nH][nH]c3=O)c2c(O)c1-c1c(C)cc2c(C(C)C)c(O)c(O)c(/C=N/n3c(=O)[nH][nH]c3=O)c2c1O [ST087010]; 5.54

Input line: # return recorded pIC50 for entry Cc1cc2c(C(C)C)c(O)c(O)c3c2c(c1-c1c(C)cc2c(C(C)C)c(O)c(O)c4c2c1OC4N)OC3N (centres unmarked) [ST069299]
Output line: 5.52

Input line: # return recorded pIC50 for entry Cc1cc2c(C(C)C)c(O)c(O)c(C=O)c2c(O)c1-c1c(C)cc2c(C(C)C)c(O)c(O)c(C=O)c2c1O [Gossypol, reference compound]
Output line: 5.47

Input line: # return recorded pIC50 for entry Cc1cc2nc[nH]c2c(/N=C/c2c(O)c(O)c(C(C)C)c3cc(C)c(-c4c(C)cc5c(C(C)C)c(O)c(O)c(/C=N/c6c(C)c(C)cc7nc[nH]c67)c5c4O)c(O)c23)c1C [ST092971]
Output line: 5.18

* * *

molecular target: binding of ZIKV EDIII to EDIII-specific neutralizing mAbs (Zika virus, UniProt A0A024B7W1); construct: EDIII (residues 298-409 in E protein containing a C-terminal human Fc tag); human Fc (C); assay: ELISA competition assay, EDIII-mAb binding; settings: IC50 blocking EDIII binding to mAb ZKA64-LALA, ELISA competition, mAb 0.5 μg/mL
Sequence (A0A024B7W1 588-699): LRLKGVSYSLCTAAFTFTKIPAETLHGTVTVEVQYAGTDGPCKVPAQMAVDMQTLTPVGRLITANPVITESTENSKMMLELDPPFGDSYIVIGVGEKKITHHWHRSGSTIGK
MEASUREMENT KIND: pIC50
API: returns pIC50 as number; meaning -log10 of concentration in mol/L.

Input line: Lab note: binding of ZIKV EDIII to EDIII-specific neutralizing mAbs (Zika virus, UniProt A0A024B7W1) assay, enter pIC50 for Cc1cc2c(C(C)C)c(O)c(O)c(/C=N/n3c(=O)[nH][nH]c3=O)c2c(O)c1-c1c(C)cc2c(C(C)C)c(O)c(O)c(/C=N/n3c(=O)[nH][nH]c3=O)c2c1O here
Output line: 5.38

* * *

system: ZIKV mosquito strain MEX 2-81; experiment: Plaque assay, inhibition of ZIKV infection (strain MEX 2-81); type: cell-based; conditions: Zika virus, Vero C1008; plaque assay, Vero E6 cells, mosquito strain; read-out: IC50 MEX 2-81
MEASUREMENT KIND: IC50 (µM)
Lab book: enter the figure in µM, no units written.

Worked set:
Cc1cc2c(C(C)C)c(O)c(O)c3c2c(c1-c1c(C)cc2c(C(C)C)c(O)c(O)c4c2c1OC4N)OC3N (stereo not shown); 3.9
Cc1cc2c(C(C)C)c(O)c(O)c(/C=N/n3c(=O)[nH][nH]c3=O)c2c(O)c1-c1c(C)cc2c(C(C)C)c(O)c(O)c(/C=N/n3c(=O)[nH][nH]c3=O)c2c1O; 2.9
Cc1cc2c(C(C)C)c(O)c(O)c(/C=N/NC(=O)C(C)C)c2c(O)c1-c1c(C)cc2c(C(C)C)c(O)c(O)c(/C=N/NC(=O)C(C)C)c2c1O; 2.8

Note: attention shifts to another entry.
Input line: # return recorded IC50 for entry Cc1cc2nc[nH]c2c(/N=C/c2c(O)c(O)c(C(C)C)c3cc(C)c(-c4c(C)cc5c(C(C)C)c(O)c(O)c(/C=N/c6c(C)c(C)cc7nc[nH]c67)c5c4O)c(O)c23)c1C
Output line: 13.5
